- TARGET OR TEST SYSTEM: recombinant human 17β-HSD1 (Homo sapiens)
- Construct: made in house; host or cells: Sd9 (Sf9) insect cells, baculovirus (Bac to Bac Expression System)
- Sequence (P14061 1-328): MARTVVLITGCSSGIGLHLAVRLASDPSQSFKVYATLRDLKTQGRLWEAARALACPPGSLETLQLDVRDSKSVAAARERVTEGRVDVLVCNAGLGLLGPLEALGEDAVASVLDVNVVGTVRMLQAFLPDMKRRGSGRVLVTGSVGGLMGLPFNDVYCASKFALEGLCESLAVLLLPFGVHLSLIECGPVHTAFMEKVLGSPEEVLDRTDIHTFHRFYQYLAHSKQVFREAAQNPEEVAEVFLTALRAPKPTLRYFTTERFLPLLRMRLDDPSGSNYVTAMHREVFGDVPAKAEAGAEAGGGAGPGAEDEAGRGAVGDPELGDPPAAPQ
- ASSAY SUMMARY: Inhibition of recombinant human 17β-HSD1 (estrone to estradiol conversion, HPLC/radioactivity)
- Assay type: biochemical
- TEST CONTEXT: compound 100 nM; 30 nM estrone, 1 mM NADPH, 30 min RT
Each entry below lists one item and its recorded inhibition at 0.1 µM value.
QUANTITY: inhibition at 0.1 µM

[[record]]
molecule = "CN(C)C(=O)c1ccc(NC(=O)CC[C@@H]2c3c[nH]nc3[C@@]3(C)CCC4c5ccc(Cl)cc5CCC4C23)nc1 (some centres unmarked) [Compound 126]"
measured_result = "89%"

[[record]]
molecule = "C[C@]12CCC3c4cccc(F)c4CCC3C1[C@H](CCC(=O)Nc1ccccn1)c1c[nH]nc12 (some centres unmarked) [Compound 18]"
measured_result = "91%"

[[record]]
molecule = "C[C@]12CCC3c4ccccc4CCC3C1[C@H](CCC(=O)Nc1cnccn1)c1c[nH]nc12 (some centres unmarked) [Compound 189]"
measured_result = "90%"

[[record]]
molecule = "C[C@]12CCC3c4cccc(F)c4CCC3C1[C@H](CCC(=O)Nc1ccc(N3CCOCC3)cn1)c1c[nH]nc12 (some centres unmarked) [Compound 39]"
measured_result = "91%"

[[record]]
molecule = "C[C@]12CCC3c4cccc(F)c4CCC3C1[C@H](CCC(=O)Nc1ccc(F)cn1)c1c[nH]nc12 (some centres unmarked) [Compound 12]"
measured_result = "92%"

